Numbers sourced from patent US9133187B2.

Reported pIC50 values are given for each entry in this list.
System: PMA-stimulated P90RSK(Ser380) phosphorylation in HepG2 cells
protocol_text: Cellular P90RSK(Ser380) Phosphorylation Assay
Type: cell-based
stated_conditions: Homo sapiens, 1.5 h compound incubation, PMA stimulation, pP90RSK(Ser380) normalized to GAPDH, read-out: Cell Assay IC50
The meaning of pIC50 here: minus log10 of the concentration in molar units.

Reference set (4 entries):
Cn1ccc(C(NC(=O)N2CCc3cnc(NC4CCOCC4)nc3C2)c2ccc(Cl)c(F)c2)n1 (centres unmarked) = 7.00
C[C@@H](NC(=O)N1CCc2cnc(NC(CO)CO)nc2C1)c1ccc(Cl)c(Cl)c1 = 6.50
O=C(N1CCc2cnc(NC3CCOCC3)nc2C1)N1CCCC1c1ccc(F)cc1 (centres unmarked) = 5.92
C[C@@H](NC(=O)N1CCc2cnc(N[C@H]3CC[C@H](O)C3)nc2C1)c1ccc(C(F)(F)F)c(F)c1 = 7.24

Now examine the next entry.
Qu. Sample "CCOc1cc(Nc2ncc3c(n2)CN(C(=O)N[C@H](C)c2ccc(Cl)c(Cl)c2)CC3)ccn1" — what was its pIC50?
Ans. 7.04

----------
System: PMA-stimulated P90RSK(Ser380) phosphorylation in HepG2 cells
protocol_text: Cellular P90RSK(Ser380) Phosphorylation Assay
Assay type: cell-based
stated_conditions: Homo sapiens, 1.5 h compound incubation, PMA stimulation, pP90RSK(Ser380) normalized to GAPDH, read-out: Cell Assay IC50
Where a name gives a salt, the structure may show the parent alone.
quantity_kind: pIC50
In simple prose, pIC50 is minus the logarithm base ten of a concentration in moles per litre.

// known answers, use as guide
CNC[C@@H](NC(=O)N1CCc2cnc(NC(C)C)nc2C1)c1ccc(C(F)(F)F)c(F)c1 [Compound I-66, hydrochloride] = 6.88
O=C(N[C@@H](c1ccc(Cl)c(Cl)c1)c1cnco1)N1CCc2cnc(NC3CCOCC3)nc2C1 = 8.34

Please turn your attention to the following entry.
Qu. # input compound: "CC(C)Nc1ncc2c(n1)CN(C(=O)N[C@@H](c1ccc(C(F)(F)F)c(F)c1)c1cccc(=O)[nH]1)CC2" ; wanted: its pIC50
Ans. 5.25

----------
assayed_system: human ERK-2 (Mitogen Activated Kinase 1) (Homo sapiens (Human), UniProt P28482)
Sequence (P28482 8-360): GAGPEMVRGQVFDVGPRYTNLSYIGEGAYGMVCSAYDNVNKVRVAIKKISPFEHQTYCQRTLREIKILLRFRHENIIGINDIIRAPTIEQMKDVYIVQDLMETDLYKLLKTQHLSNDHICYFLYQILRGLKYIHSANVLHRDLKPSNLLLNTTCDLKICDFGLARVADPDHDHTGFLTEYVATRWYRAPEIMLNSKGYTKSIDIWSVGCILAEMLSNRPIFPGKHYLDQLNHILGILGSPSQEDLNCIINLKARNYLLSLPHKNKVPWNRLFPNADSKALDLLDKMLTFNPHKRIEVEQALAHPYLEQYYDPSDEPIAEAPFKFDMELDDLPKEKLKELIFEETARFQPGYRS
protocol_text: ERK-2 Enzymatic Assay
stated_conditions: 5 nM ERK-2, 25 μM ATP, Omnia peptide S/T17; read-out: ERK Inhibition IC50
Method: Compounds were tested in an enzymatic assay using human ERK-2 (Mitogen Activated Kinase 1), recombinantly expressed as an n-terminal 6-His fusion protein in E. coli and corresponding to aa 8-360. […] The assay was run at ambient temperature in a white 384-well polypropylene plate (Nunc, Inc of Naperville, Ill.; Cat. 267462) collecting data every 50 seconds for approximately 30 minutes on an Envision plate reader (PerkinElmer, Inc. of Waltham, Mass.); Excitation 340 nm/Emission 495 nm. […]
Structures can show the parent of a compound that is named as a salt.
quantity_kind: pIC50
Quick note: pIC50 means taking -log10 of the concentration in moles per liter.

CC(C)Nc1ncc2c(n1)CN(C(=O)N[C@@H]1CN(C)C[C@H]1c1ccc(C(F)(F)F)c(F)c1)CC2 [Compound I-120] = 8.80
CC(C)Nc1ncc2c(n1)CN(C(=O)NCc1cc3ccccc3[nH]1)CC2 [II-195] = 8.18
C[C@@H](CO)Nc1cc2c(cn1)CCN(C(=O)N[C@H](C)c1ccc(Cl)c(Cl)c1)C2 [Compound I-149] = 8.52
CNC[C@@H](NC(=O)N1CCc2cnc(NC(C)C)nc2C1)c1ccc(C(F)(F)F)c(F)c1 [Compound I-66, hydrochloride] = 8.39
C[C@@H](CO)Nc1ncc2c(n1)CN(C(=O)NC1CNCC1c1ccc(C(F)(F)F)cc1)CC2 (mixture of isomers) [II-171] = 9.15
CC(C)Nc1ncc2c(n1)CN(C(=O)CCc1ccc(Cl)cc1Cl)CC2 [II-24] = 6.61

With those in mind, consider the next compound.
Qu. Return reported pIC50; argument: C[C@@H](NC(=O)N1CCc2cnc(NC3CC(=O)N(C)C3)nc2C1)c1ccc(Cl)c(F)c1 (stereo partly shown) [II-267]
Ans. 7.70
